Molecular target: T1, mouse programmed cell death protein 1 Fc fusion protein (mPD-1-Fc), mPD-1 C60S (aa 25-167) (Mus musculus, UniProt Q02242, stabilised)
T1 construct: not cleaved; source: Expi293F, purified (Protein A, SEC; dimeric fraction); not shown: Fc (human), C-terminal, kept
Experiment: SPR; Carterra LSA; Fab from the ammonium sulfate precipitate of the culture supernatant immobilised on a NiHC200M chip; hPD-1 (1-1024 nM) or mPD-1-Fc (4-1024 nM) as analyte, fourfold dilution series, no regeneration; HBS-EP pH 7.4, 25 °C; medians over the spots of a construct, KD = koff/kon
Details: one partner purified
REPORTED METRIC: koff (s⁻¹)
Give the quantity in s⁻¹, number only.

As a guide, the following entries are already answered.
{"BINDER": "toripalimab Fab L.S32A (Fab, V domains shown, as the heavy chain of Sm3; light chain of Sm3 with this change; numbers count from the chain's first residue; source: Brevibacillus, culture supernatant (ammonium sulfate precipitate); not shown: 6xHis, C-terminal, kept; 6xHN, C-terminal, kept) VH: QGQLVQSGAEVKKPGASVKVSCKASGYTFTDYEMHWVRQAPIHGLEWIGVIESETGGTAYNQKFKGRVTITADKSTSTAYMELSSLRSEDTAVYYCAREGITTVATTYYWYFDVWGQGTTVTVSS VL: DVVMTQSPLSLPVTLGQPASISCRSSQSIVHANGNTYLEWYLQKPGQSPQLLIYKVSNRFSGVPDRFSGSGSGTDFTLKISRVEAEDVGVYYCFQGSHVPLTFGQGTKLEIK", "koff [s⁻¹]": 0.0077}
{"BINDER": "toripalimab Fab L.R24A (Fab, V domains shown, as the heavy chain of Sm3; light chain of Sm3 with this change; numbers count from the chain's first residue; source: Brevibacillus, culture supernatant (ammonium sulfate precipitate); not shown: 6xHis, C-terminal, kept; 6xHN, C-terminal, kept) VH: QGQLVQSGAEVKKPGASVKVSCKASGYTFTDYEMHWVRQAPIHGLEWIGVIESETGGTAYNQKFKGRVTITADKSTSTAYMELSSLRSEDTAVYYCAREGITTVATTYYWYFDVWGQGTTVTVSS VL: DVVMTQSPLSLPVTLGQPASISCASSQSIVHSNGNTYLEWYLQKPGQSPQLLIYKVSNRFSGVPDRFSGSGSGTDFTLKISRVEAEDVGVYYCFQGSHVPLTFGQGTKLEIK", "koff [s⁻¹]": 0.0079}

Look at this binder and give its reported koff. toripalimab Fab H.Q62A (Fab, V domains shown, heavy chain of Sm3 with this change; numbers count from the chain's first residue; as the light chain of Sm3; source: Brevibacillus, culture supernatant (ammonium sulfate precipitate); not shown: 6xHis, C-terminal, kept; 6xHN, C-terminal, kept) VH: QGQLVQSGAEVKKPGASVKVSCKASGYTFTDYEMHWVRQAPIHGLEWIGVIESETGGTAYNAKFKGRVTITADKSTSTAYMELSSLRSEDTAVYYCAREGITTVATTYYWYFDVWGQGTTVTVSS VL: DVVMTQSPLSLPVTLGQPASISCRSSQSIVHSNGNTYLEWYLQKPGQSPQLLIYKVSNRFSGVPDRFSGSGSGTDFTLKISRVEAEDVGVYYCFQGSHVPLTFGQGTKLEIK 0.00564
